All values here come from PubChem BioAssay (NCI).

# PROTOCOL DETAILS: NCI Yeast Anticancer Drug Screen. Data for the rad50 strain (AID 155);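 note: 0% = growth of vehicle-only cultures of the same strain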
# MEASUREMENT PARAMETERS: S. cerevisiae rad50 strain growth inhibition; at 50.0 µM (retest, dose inferred, filed as 5.0); stronger effect = higher value
The panel holds about 79,000 compounds, 15% with a hit somewhere; the sample as a whole holds those more often.
MEASURED QUANTITY: growth inhibition (%)

{"COMPOUND": "O=C(Nc1ccc(/C=C/c2ccc(NC(=O)c3cc(S(=O)(=O)O)c4cccnc4c3O)cc2S(=O)(=O)O)c(S(=O)(=O)O)c1)c1cc(S(=O)(=O)O)c2cccnc2c1O", "MEASURED QUANTITY": "growth inhibition", "RESULT": 97}
{"COMPOUND": "ClC1=C(Cl)C(Cl)=C(Cl)C1", "MEASURED QUANTITY": "growth inhibition", "RESULT": 93}
{"COMPOUND": "Cc1cccc2c(CBr)cc(=O)[nH]c12", "MEASURED QUANTITY": "growth inhibition", "RESULT": 91}
{"COMPOUND": "Cc1ccc(S(=O)(=O)/C=C/C(=O)c2ccc3ccccc3c2)cc1", "MEASURED QUANTITY": "growth inhibition", "RESULT": 86}
{"COMPOUND": "COc1ccc(CN2CCCN(Cc3ccc(OC)cc3OC)C2c2cc(Cl)ccc2O)c(OC)c1", "MEASURED QUANTITY": "growth inhibition", "RESULT": 87}
{"COMPOUND": "CCOC(=O)Nc1cc(NC(C)/C(=N/O)c2ccccc2)c([N+](=O)[O-])c(N)n1 (stereo not drawn)", "MEASURED QUANTITY": "growth inhibition", "RESULT": 97}
{"COMPOUND": "COc1ccc2ccc(OC)c(C=O)c2c1", "MEASURED QUANTITY": "growth inhibition", "RESULT": -119}
{"COMPOUND": "CCC(C)n1c(C)nc2c(N)cc(C(F)(F)F)cc21 (stereo not drawn)", "MEASURED QUANTITY": "growth inhibition", "RESULT": 11}
